Tested on: Saccharomyces cerevisiae;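 note: PSI is a weighted mean of sequencing reads over stability bins, variants kept only with over 10 reads, mCherry proximal and sfGFP distal, peptide attached via GGGS linker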
test name: protein stability index of tFT-peptide fusion (C-terminal peptide) (PSI (0-1 scale)); higher = more stable (slower turnover)
condition set: genetic background: cdc34-1; temperature: 37 C
Heads up, the class ranges for protein stability index are low-valued = under 0.4, mid-valued = from 0.4 up to 0.6, high-valued = 0.6 and over

entry sequence | discrete label
FIFCLSCGVWGG | mid-valued
RCIRRWPYILKL | mid-valued
IYLLLFFFSFSA | low-valued
WHFPCPPLPCPV | mid-valued
WCLLGVPVRVVV | low-valued
WCVCVSMRMIAI | low-valued
VVNFLVFRFFCI | mid-valued
LVFFAYLIRGAL | low-valued
VFRHFYTFLALC | low-valued
RGSRLVPRLLRP | high-valued
SPRSIALLHLFS | high-valued
HMVSWTVVRSLM | high-valued
VFFPCRLLPLLF | mid-valued
LSRELRFVGFYH | high-valued
GFLFVLCAWGFF | low-valued
FCLFMFVPLLPL | mid-valued
ASVSVWCVSVVV | low-valued
DRQMRCVHIHYL | high-valued
LFLVFIGLFFLT | low-valued
